Molecular target: T1, Epidermal growth factor receptor 2 (HER2 or ErbB-2) on HER2+ SKOV3 cells (human, UniProt P04626 23-1255)
T1 construct: whole, on cells; Only claim 72 calls it 'human epidermal growth factor receptor 2 (HER2)'
Experiment: split-luciferase complementation on HER2+ SKOV3 cells (lysates, washed); paired with TrasH-β9
measurement label: Signal-to-Background (Ratio of Relative Luminescence Units)
A bare number is not enough; add the unit after it.

Output measured Signal-to-Background (Ratio of Relative Luminescence Units) for this item: G3-β10* (designed binder, DARPin fusion expressed in E. coli; Used as lysate in the screen and later IMAC-purified; also called DARPin G3 with C-terminal β10*) MRGSHHHHHHGSDLGKKLLEAARAGQDDEVRILMANGADVNAKDEYGLTPLYLATAHGHLEIVEVLLKNGADVNAVDAIGFTPLHLAAFIGHLEIAEVLLKHGADVNAQDKFGKTAFDISIGNGNEDLAEILQKLNGGGSGGGGSGGGGSGVSGWRLFKKIS
118 ratio
